Molecular target: HLA-DRB1*1501 (human)
Experiment: competition binding
Conditions: modification not given
pIC50: −log10 of the molar value.
measured property: pIC50

A selection of reference data follows.
MRYFFTSVSRPGRGE [p2*] : 5.93
KPLTLRWEPSSQPTI [p50*] : 5.25

A. RAYLEGTCVEWLRRY [p33]
B. VEWLRRYLENGKETL [p35*]
C. AEITLTWQRDGEDQT [p42]
D. KDYIALKEDLRSWTA [p25]
Qu. Sort by pIC50, descending. Please respond with the labels ordered as the question requires.
Ans. D, B, A, C
